# Test system: Escherichia coli TOP10;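 further: peptides expressed intracellularly from a pBAD plasmid library in pooled LB shake-flask culture, induced with 0.3% L-arabinose, DNA abundance read by NGS, three biological replicates, DESeq2 with apeglm shrinkage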
# run.description: shrunken log2 fold change of peptide-encoding DNA abundance (4.5 h post-induction vs induction); higher = less antimicrobial activity (less host growth inhibition)
# settings: time post-induction: 4.5 h; library: site-saturation at positions 5, 18, 19, 20
Some sequences, each annotated with its measured shrunken log2 fold change.

Use these answered entries as a reference point.
| record.sequence | quantity.kind | test.result |
| --- | --- | --- |
| RRIRERPPRLPRPRPRPGFRPRP | shrunken log2 fold change | 0.231 |
| RRIRNRPPRLPRPRPRPYWNPRP | shrunken log2 fold change | -0.108 |
| RRIRDRPPRLPRPRPRPYPNPRP | shrunken log2 fold change | -0.0838 |
| RRIRQRPPRLPRPRPRPETNPRP | shrunken log2 fold change | 0.0137 |
| RRIRDRPPRLPRPRPRPDFRPRP | shrunken log2 fold change | -0.0735 |
| RRIRGRPPRLPRPRPRPKHVPRP | shrunken log2 fold change | 0.0824 |
| RRIRLRPPRLPRPRPRPEAMPRP | shrunken log2 fold change | 0.284 |
| RRIRPRPPRLPRPRPRPPWIPRP | shrunken log2 fold change | -0.0483 |
| RRIRIRPPRLPRPRPRPCEMPRP | shrunken log2 fold change | 0.0583 |
| RRIRFRPPRLPRPRPRPGSAPRP | shrunken log2 fold change | 0.182 |

get_value(item= RRIRHRPPRLPRPRPRPEMHPRP , readout=shrunken log2 fold change) returns 0.0592

get_value(item= RRIRERPPRLPRPRPRPDDWPRP , readout=shrunken log2 fold change) returns -0.0125

get_value(item= RRIRQRPPRLPRPRPRPWGTPRP , readout=shrunken log2 fold change) returns -0.239

This collection of values is drawn from the supplement of paper PMC9112550.
